# Tested on: mongrel cats
# Protocol: Inotropic and heart-circulatory effectiveness on narcotised cats, intravenous
# Assay type: in vivo, cat
# Run Conditions: 0.25 mg/kg i.v.; 6 animals
Response key: Y means dp/dt (inotropism) after >= 7000 mm.Hg/sec; N means dp/dt (inotropism) after < 7000 mm.Hg/sec.

N#Cc1ccccc1OCC(O)CN[C@H]1CO[C@H]2[C@@H]1OC[C@@H]2O[N+](=O)[O-] (some centres unmarked) [Example 50] :: N
O=[N+]([O-])O[C@H]1CO[C@H]2[C@@H]1OC[C@@H]2NCC(O)COc1cccc2ccccc12 (some centres unmarked) [Example 54] :: Y
O=[N+]([O-])O[C@H]1CO[C@H]2[C@@H]1OC[C@@H]2NCC(O)COc1cccc(C(F)(F)F)c1 (some centres unmarked) [Example 52] :: N
CCOc1ccccc1OCC(O)CN[C@H]1CO[C@H]2[C@@H]1OC[C@@H]2O[N+](=O)[O-] (some centres unmarked) [Example 47] :: Y
O=[N+]([O-])O[C@H]1CO[C@H]2[C@@H]1OC[C@@H]2NCCCc1ccccc1 [Example 28] :: Y
C=CCc1ccccc1OCC(O)CN[C@H]1CO[C@H]2[C@@H]1OC[C@@H]2O[N+](=O)[O-] (some centres unmarked) [Example 49] :: Y
O=[N+]([O-])O[C@H]1CO[C@H]2[C@@H]1OC[C@@H]2NCCCOc1ccccc1 [Example 36] :: Y

Given the entry CN(CCCOc1ccccc1)[C@H]1CO[C@H]2[C@@H]1OC[C@@H]2O[N+](=O)[O-] [Example 34] , answer whether its dp/dt (inotropism) after meets or surpasses 7000 mm.Hg/sec.
N

* * *

# System: mongrel cats
# Protocol: Inotropic and heart-circulatory effectiveness on narcotised cats, intravenous
# Type: in vivo, cat
# Run Conditions: 2.50 mg/kg i.v.; 6 animals
Quick list: blood pressure after per entry.
Give a bare numeral; the unit mm.Hg is implied.

O=[N+]([O-])O[C@H]1CO[C@H]2[C@@H]1OC[C@H]2NCC(O)COc1cccc2ccccc12 (some centres unmarked) :: 94.3
O=[N+]([O-])O[C@H]1CO[C@H]2[C@@H]1OC[C@@H]2NCC(O)COc1cccc(C(F)(F)F)c1 (some centres unmarked) :: 60.5
O=[N+]([O-])O[C@H]1CO[C@H]2[C@@H]1OC[C@@H]2NCCCOc1ccccc1 :: 62.5
O=[N+]([O-])O[C@H]1CO[C@H]2[C@@H]1OC[C@@H]2NCC(O)COc1cccc2ccccc12 (some centres unmarked) :: 78.5
O=[N+]([O-])O[C@H]1CO[C@H]2[C@@H]1OC[C@@H]2NCCCCc1ccccc1 :: 80.8

I would be grateful if you could share the reported blood pressure after for O=[N+]([O-])O[C@H]1CO[C@H]2[C@@H]1OC[C@@H]2NCCCc1ccccc1 .
53.2

I would be grateful if you could share the reported blood pressure after for CN(CCCOc1ccccc1)[C@H]1CO[C@H]2[C@@H]1OC[C@@H]2O[N+](=O)[O-] .
69.2

I would be grateful if you could share the reported blood pressure after for CCOc1ccccc1OCC(O)CN[C@H]1CO[C@H]2[C@@H]1OC[C@@H]2O[N+](=O)[O-] (some centres unmarked) .
79.5

I would be grateful if you could share the reported blood pressure after for O=[N+]([O-])O[C@H]1CO[C@H]2[C@@H]1OC[C@@H]2NCCCCCc1ccccc1 .
60.3

I would be grateful if you could share the reported blood pressure after for N#Cc1ccccc1OCC(O)CN[C@H]1CO[C@H]2[C@@H]1OC[C@@H]2O[N+](=O)[O-] (some centres unmarked) .
77.5

I would be grateful if you could share the reported blood pressure after for C=CCc1ccccc1OCC(O)CN[C@H]1CO[C@H]2[C@@H]1OC[C@@H]2O[N+](=O)[O-] (some centres unmarked) .
86.6
